Target desc: Proteasome Macropain subunit MB1 (Homo sapiens)
Sequence (P28074 whole entry): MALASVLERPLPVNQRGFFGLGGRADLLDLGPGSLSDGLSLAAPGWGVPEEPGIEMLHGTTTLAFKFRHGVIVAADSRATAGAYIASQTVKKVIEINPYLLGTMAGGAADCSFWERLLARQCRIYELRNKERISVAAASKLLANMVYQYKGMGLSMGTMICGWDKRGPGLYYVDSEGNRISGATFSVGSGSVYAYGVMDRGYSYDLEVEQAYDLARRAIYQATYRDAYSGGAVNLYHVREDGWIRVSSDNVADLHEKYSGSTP
Procedure details: Inhibition of 20s constitutive proteasome beta5 chymotrypsin-like activity in human erythrocytes using Suc-Leu-Leu-ValTyr-MCA as substrate preincubated for 10 mins followed by substrate addition and measured after 6 hrs by fluorescence assay
pIC50: −log10 of the molar value.
Observable: pIC50

[[record]]
molecular_string = "C1=C2CN3CCCC/C=C\\CC[C@@H]4CN(CCCC/C=C\\CC[C@H]1C3)CC[C@@H]24"
target_desc = "Proteasome Macropain subunit MB1 (Homo sapiens)"
observable = "pIC50"
value_observed = 6.38

[[record]]
molecular_string = "C1=C\\CCc2cc3c[n+](c2)CCCC/C=C\\CC[C@@H]2CN(CCCC/1)CC[C@@H]32"
target_desc = "Proteasome Macropain subunit MB1 (Homo sapiens)"
observable = "pIC50"
value_observed = 5.74

